Overview of reported Bliss excess across a group of molecules:
test system: RPMI-8226 (Plasma Cell Myeloma); assay: Bliss excess, mean over the matrix (fraction); higher = more synergy;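 further: after 72 h of two-drug dosing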
Write the number on its own, no unit after it.

Field: example entries. Status: answers known.
C=CCn1c(=O)c2cnc(Nc3ccc(N4CCN(C)CC4)cc3)nc2n1-c1cccc(C(C)(C)O)n1 [AZD1775] + C[C@@H]1COCCN1C2=NC(=NC(=C2)C3(CC3)[S@](=N)(=O)C)C4=C5C=CNC5=NC=C4 [AZD6738] (first compound max 1 µM, partner max 10 µM): 0.0407
CN(CCO)CC[C@H](CSc1ccccc1)Nc1ccc(S(=O)(=O)NC(=O)c2ccc(N3CCC([C@@H](O)c4ccccc4-c4ccc(Cl)cc4)CC3)cc2)cc1S(=O)(=O)C(F)(F)F [AZD4320] + Cn1cnc2c(F)c(Nc3ccc(Br)cc3Cl)c(C(=O)NOCCO)cc21 [Selumetinib] (first compound max 1 µM, 7x7, partner max 3 µM): 0.0202
CC1(C)CCC(CN2CCN(c3ccc(C(=O)NS(=O)(=O)c4ccc(NCC5CCOCC5)c([N+](=O)[O-])c4)c(Oc4cnc5[nH]ccc5c4)c3)CC2)=C(c2ccc(Cl)cc2)C1 [Venetoclax] + CN(C)CCCOc1ccc(-c2ccc3ncc4c(c3c2)n(C2CCOCC2)c(=O)n4C)cn1 [AZD0156] (first compound max 1 µM, 7x7, partner max 1 µM): 0.0405

Find Bliss excess for NC1(C(=O)N[C@@H](CCO)c2ccc(Cl)cc2)CCN(c2ncnc3[nH]ccc23)CC1 [Capivasertib] + Cn1cnc2c(F)c(Nc3ccc(Br)cc3Cl)c(C(=O)NOCCO)cc21 [Selumetinib] (first compound max 10 µM, 7x7, partner max 10 µM) on RPMI-8226 (Plasma Cell Myeloma) and write it down.
0.0411

Find Bliss excess for CC1(C)CCC(CN2CCN(c3ccc(C(=O)NS(=O)(=O)c4ccc(NCC5CCOCC5)c([N+](=O)[O-])c4)c(Oc4cnc5[nH]ccc5c4)c3)CC2)=C(c2ccc(Cl)cc2)C1 [Venetoclax] + C[C@@H](Nc1cc(F)cc(F)c1)c1cc(C(=O)N(C)C)cc2c(=O)cc(N3CCOCC3)oc12 [AZD8186] (first compound max 1 µM, 7x7, partner max 3 µM) on RPMI-8226 (Plasma Cell Myeloma) and write it down.
0.037

Find Bliss excess for CC(=O)c1c(C)c2cnc(Nc3ccc(N4CCNCC4)cn3)nc2n(C2CCCC2)c1=O [Palbociclib] + Cc1c2c(nn1C)CSCc1cc(n(C)n1)CSc1cc(c3ccccc3c1)OCCCc1c(C(=O)O)n(C)c3c-2c(Cl)ccc13 [AZD5991] (first compound max 10 µM, 7x7, partner max 1 µM) on RPMI-8226 (Plasma Cell Myeloma) and write it down.
-0.0191
